Could you please report measured fold change (FC) for the items listed next?
# tested.system: Sialic acid-binding Ig-like lectin 7 (Homo sapiens)
# Sequence (Q9Y286 whole entry, the tested form may be a part): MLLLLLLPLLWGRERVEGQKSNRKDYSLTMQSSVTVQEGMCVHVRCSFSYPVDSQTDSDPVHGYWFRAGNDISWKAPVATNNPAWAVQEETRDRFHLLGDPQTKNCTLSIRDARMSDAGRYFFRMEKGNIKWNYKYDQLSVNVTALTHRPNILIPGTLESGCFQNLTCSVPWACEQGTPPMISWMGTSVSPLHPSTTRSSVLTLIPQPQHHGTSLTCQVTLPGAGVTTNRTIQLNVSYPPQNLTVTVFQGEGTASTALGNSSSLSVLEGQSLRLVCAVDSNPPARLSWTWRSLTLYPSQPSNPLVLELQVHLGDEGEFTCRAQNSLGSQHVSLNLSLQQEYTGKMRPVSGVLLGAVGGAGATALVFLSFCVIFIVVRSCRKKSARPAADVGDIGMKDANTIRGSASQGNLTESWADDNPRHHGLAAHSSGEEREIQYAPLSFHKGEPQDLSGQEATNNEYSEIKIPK
# experiment.summary: Binding affinity to human IgG1-fused Siglec-7-Fc assessed as inhibition of Siglec-7-Fc binding to RBC preincubated for 10 mins followed by RBC addition measured after 20 mins by FACS analysis relative to sodium (4S,5R,6R)-5-acetamido-4-hydroxy-2-methoxy-6-((1R,2R)-1,2,3 trihydroxypropyl)tetrahydro-2H-pyran-2-carboxylate

Below are worked cases with known answers.
1) COC1(C(=O)O)C[C@H](O)[C@@H](NC(C)=O)[C@H]([C@H](O)[C@H](O)CNC(=O)c2ccc(-c3ccccc3)cc2)O1 (stereo partly specified) ... < 1.5
2) COC1(C(=O)O)C[C@H](O)[C@@H](NC(C)=O)[C@H]([C@H](O)[C@H](O)CNC(=O)Cc2cccc3ccccc23)O1 (stereo partly specified) ... < 1.5
3) CC(=O)N[C@H]1[C@H]([C@H](O)[C@H](O)CNS(=O)(=O)NS(N)(=O)=O)O[C@@](OCCCn2cc(-c3ccc(-c4ccccc4)cc3)nn2)(C(=O)O)C[C@@H]1O ... 1
4) COC1(C(=O)O)C[C@H](O)[C@@H](NC(C)=O)[C@H]([C@H](O)[C@H](O)CNC(=O)c2ccccc2)O1 (stereo partly specified) ... < 1.5
5) COC1(C(=O)O)C[C@H](O)[C@@H](NC(C)=O)[C@H]([C@H](O)[C@H](O)CNC(=O)CC2CCCCC2)O1 (stereo partly specified) ... < 1.5

Attention now shifts to the item below.
The molecule COC1(C(=O)O)C[C@H](O)[C@@H](NC(C)=O)[C@H]([C@H](O)[C@H](O)CNC(=O)CC23CC4CC(CC(C4)C2)C3)O1 (stereo partly specified) , tested on Sialic acid-binding Ig-like lectin 7 (Homo sapiens), showed fold change (FC) of < 1.5
